test: Differential scanning calorimetry of hydrogels (gel-sol phase transition); assay type: physicochemical; details: 1 wt % hydrogel, DSC heating 5° C. per min
ASSAY_ENDPOINT: Phase transition temperature

// worked examples, Phase transition temperature included
CCCCCCCCS[C@@H]1O[C@H](CO)[C@@H](O[C@@H]2O[C@H](CO)[C@H](O)[C@H](O)[C@H]2O)[C@H](O)[C@H]1O 38-46 °C
CCCCCCCCCCCCS[C@@H]1O[C@H](CO)[C@@H](O[C@@H]2O[C@H](CO)[C@H](O)[C@H](O)[C@H]2O)[C@H](O)[C@H]1O 63-79 °C
CCCCCCCCCCS[C@@H]1O[C@H](CO)[C@@H](O[C@@H]2O[C@H](CO)[C@@H](O)[C@H](O)[C@H]2O)[C@H](O)[C@H]1O 31-37 °C

Q: Kindly indicate its recorded Phase transition temperature. Item: `CCCCCCCCCCCCS[C@@H]1O[C@H](CO)[C@@H](O[C@@H]2O[C@H](CO)[C@@H](O)[C@H](O)[C@H]2O)[C@H](O)[C@H]1O`
A: 42-54 °C
